biological target: CCNG1; test: pooled miR-30 sensor sort-seq; sequence = guide strand; conditions: shRNA; note: reference of the scale not given here
The threshold is inclusive: sensor-assay potency score (higher = more potent) of exactly -0.2 counts as label 1; values below receive label 0.

[
  {
    "primarySequence": "TTGGCTGACATCTAGACTCCTG",
    "category": "label 1"
  },
  {
    "primarySequence": "TTAGTCTCAAACCACAGACCTT",
    "category": "label 0"
  },
  {
    "primarySequence": "TTGGATACAAGCTCTTGCCAGA",
    "category": "label 0"
  },
  {
    "primarySequence": "TTTGGATACAAGCTCTTGCCAG",
    "category": "label 0"
  },
  {
    "primarySequence": "TTCATTTTAGACAGGAATCTGT",
    "category": "label 1"
  },
  {
    "primarySequence": "TTAGTCTTGCAGTCATTCTGAG",
    "category": "label 0"
  },
  {
    "primarySequence": "TTCTGTTAACTCTACACACTTC",
    "category": "label 0"
  },
  {
    "primarySequence": "TTCTATTGATTTTACAGCCAAA",
    "category": "label 0"
  },
  {
    "primarySequence": "TTTAGACAGGAATCTGTCCAGT",
    "category": "label 1"
  },
  {
    "primarySequence": "TAGCATTTCACATTTAGGCTTT",
    "category": "label 1"
  },
  {
    "primarySequence": "TTAGCTTTGATTTGAATGCTTC",
    "category": "label 1"
  },
  {
    "primarySequence": "TTCAGTTGAGCTTCTAGTCTTT",
    "category": "label 1"
  }
]
